# System: telomerase
# test: Inhibition of telomerase, biochemical (FlashPlate) assay
# Parameters: species or system human
# assay.setup: NPS linkages unless NP backbone stated
Strand notation (5' to 3'): a small letter for the sugar, then the base; units joined by * are phosphorothioate-linked, units joined directly phosphodiester-linked; [ ] holds rarer units or linkages, { } end groups; capitals alone tell only the bases. [NPS] = N3'→P5' thiophosphoramidate internucleoside linkage; d = 2'-deoxy (DNA)
I'd appreciate it if you could supply pIC50 values for the items below.
# pIC50 is unitless: minus log10 of the molar concentration; print number only

Just so you know, measured pIC50 for 12-mer; truncation of GRN163 sequence: NPS oligonucleotide TAGGGTTAGACA (SEQ ID NO: 14) (DNA, all [NPS], methylation of C not given here) came out at 9.44

Record Complement of GRN163 sequence: NPS oligonucleotide TTGTCTAACCCTA (SEQ ID NO: 24) (DNA, all [NPS], methylation of C not given here) . Reported pIC50: 6.00

Given item Mismatch of alternative targeting 11-mer: NPS oligonucleotide GTTGAGTGTAG (SEQ ID NO: 25) (DNA dG[NPS]dT[NPS]dT[NPS]dG[NPS]dA[NPS]dG[NPS]dT[NPS]dG[NPS]dT[NPS]dA[NPS]dG) , the value recorded as its pIC50 is 6.75

Entry Alternative targeting 13-mer: NPS oligonucleotide CAGTTAGGGTTAG (SEQ ID NO: 13), complementary to nucleotides 46-58 of SEQ ID NO: 1 (DNA, all [NPS], methylation of C not given here) , pIC50 reported as 10.31

----------
Would you kindly list IC50 for each of these substances?
# Test system: telomerase
# test: Inhibition of telomerase, biochemical (FlashPlate) assay
# Parameters: species or system human
# assay.setup: NPS linkages unless NP backbone stated
Strand notation (5' to 3'): a small letter for the sugar, then the base; units joined by * are phosphorothioate-linked, units joined directly phosphodiester-linked; [ ] holds rarer units or linkages, { } end groups; capitals alone tell only the bases. [NPS] = N3'→P5' thiophosphoramidate internucleoside linkage; d = 2'-deoxy (DNA)
Give just the numeric value; nM need not be written.

Lab note: substance Duplex of GRN163 sequence: Duplex TAGGGTTAGACAA / ATCCCAATCTGTT (chemistry not fully specified; one strand is listed 3' to 5') tested on telomerase; recorded IC50 was 8.9

Noted IC50 for 11-mer; truncation of GRN163 sequence: NPS oligonucleotide TAGGGTTAGAC (SEQ ID NO: 15) (DNA, all [NPS], methylation of C not given here) , tested on telomerase: 0.85

Value sought: IC50, system telomerase, item Alternative targeting 11-mer: NPS oligonucleotide GTTAGGGTTAG (SEQ ID NO: 16) (DNA dG[NPS]dT[NPS]dT[NPS]dA[NPS]dG[NPS]dG[NPS]dG[NPS]dT[NPS]dT[NPS]dA[NPS]dG) . Result: 0.51

Record Mismatch of GRN163 sequence: NPS oligonucleotide TAGGTGTAAGCAA (SEQ ID NO: 23) (DNA, all [NPS], methylation of C not given here) / telomerase, IC50 recorded as 80

----------
# Tested on: telomerase
# test: Inhibition of telomerase, biochemical (FlashPlate) assay
# Design: species or system human
# assay.setup: NPS linkages unless NP backbone stated
pIC50: −log10 of the molar value. [NP] = N3'→P5' phosphoramidate internucleoside linkage
endpoint: pIC50

Note to self: pIC50 recorded for Mismatch of GRN163 sequence with NP backbone: TAGGTGTAAGCAA with NP backbone (DNA, all [NP], methylation of C not given here) was < 6.00

In plain terms, Oligo-T 10-mer: Oligonucleotide TTTTTTTTTT (SEQ ID NO: 27) has a documented pIC50 of < 6.00

Measured pIC50 of Telomere repeat unit: Oligonucleotide TTAGGG (SEQ ID NO: 26) : < 6.00
